Property: NF-kB reporter; scope: individual compounds
Tested on: RAW-Dual (murine macrophage reporter line)
Assay: NF-kB reporter (SEAP) activity fold change vs agonist alone; higher = enhanced NF-kB activity
Conditions: modulator concentration 10 µM; agonist: MPLA […]
The response must contain the number and no unit.

> print(dat)
                                   compound  readout.value
1              CCCN1CCC(NCCc2cccc(Cl)c2)CC1           1.18
2  Nc1ccccc1NC(=O)c1ccc(CNc2nccc(-c3cccnc3)n2)cc1           2.58
3  CC(=O)N1CCN(c2ccc(OC[C@H]3CO[C@](Cn4ccnc4)(c4ccc(Cl)cc4Cl)O3)cc2)CC1           1.03

Hey, RAW-Dual (murine macrophage reporter line) data for CC(C)(C)NCC(O)COc1cccc2c1CC(O)C(O)C2 (stereo unspecified) : NF-kB reporter came out at 1.05

Query O=C1CCCC2=C1C(c1ccc(C(F)(F)F)cc1)Nc1ccc(C(=O)c3ccccc3)cc1N2 (stereo unspecified) on RAW-Dual (murine macrophage reporter line); NF-kB reporter returned: 0.759

Item O=C(Nc1nc(CC(=O)N2CCOCC2)cs1)c1ccccc1 ; assay system RAW-Dual (murine macrophage reporter line); NF-kB reporter reported as 0.941
